The origin of these recorded values is ChEMBL document CHEMBL2434865.

- Organism: Homo sapiens
- procedure.text: Binding affinity to human T-loop 5'-FAM-TATAGCTATATTTTTTTATAGCTATATAMRA-3' at 2 uM after 3 hrs by HT-FRET assay
endpoint: ΔTm
Please format your answer as a value with the unit trailing.

Some entries whose results are on file:
CN1CCN(CCCN2C(=O)c3cc(NCCCN4CCOCC4)c4c5c(cc(NCCCN6CCOCC6)c(c35)C2=O)C(=O)N(CCCN2CCN(C)CC2)C4=O)CC1	9 °C
COCCCNc1cc2c3c(c(NCCCOC)cc4c3c1C(=O)N(CCCN1CCN(C)CC1)C4=O)C(=O)N(CCCN1CCN(C)CC1)C2=O	0 °C
CN1CCN(CCCN2C(=O)c3cc(NCC4CCOCC4)c4c5c(cc(NCC6CCOCC6)c(c35)C2=O)C(=O)N(CCCN2CCN(C)CC2)C4=O)CC1	0 °C
CN1CCN(CCN2C(=O)c3cc(NCCCN4CCOCC4)c4c5c(cc(NCCCN6CCOCC6)c(c35)C2=O)C(=O)N(CCN2CCN(C)CC2)C4=O)CC1	8 °C

Next, consider the following compound.
Summary for this compound, `CN1CCN(CCCN2C(=O)c3cc(NC[C@@H]4CCCO4)c4c5c(cc(NC[C@H]6CCCO6)c(c35)C2=O)C(=O)N(CCCN2CCN(C)CC2)C4=O)CC1` : ΔTm is 0 °C

----------
- Species on record: Homo sapiens
- procedure.text: Binding affinity to human T-loop 5'-FAM-TATAGCTATATTTTTTTATAGCTATATAMRA-3' at 1 uM after 3 hrs by HT-FRET assay
A collection of compounds and their measured ΔTm
// units = °C; emit number, no label

CN1CCN(CCCN2C(=O)c3cc(NCCCN4CCOCC4)c4c5c(cc(NCCCN6CCOCC6)c(c35)C2=O)C(=O)N(CCCN2CCN(C)CC2)C4=O)CC1	5
CN1CCN(CCCN2C(=O)c3cc(NCC4CCOCC4)c4c5c(cc(NCC6CCOCC6)c(c35)C2=O)C(=O)N(CCCN2CCN(C)CC2)C4=O)CC1	0
CN1CCN(CCCN2C(=O)c3cc(NC[C@@H]4CCCO4)c4c5c(cc(NC[C@H]6CCCO6)c(c35)C2=O)C(=O)N(CCCN2CCN(C)CC2)C4=O)CC1	0
CN1CCN(CCN2C(=O)c3cc(NCCCN4CCOCC4)c4c5c(cc(NCCCN6CCOCC6)c(c35)C2=O)C(=O)N(CCN2CCN(C)CC2)C4=O)CC1	2

// below: ΔTm requested for another compound
Measured ΔTm of `COCCCNc1cc2c3c(c(NCCCOC)cc4c3c1C(=O)N(CCCN1CCN(C)CC1)C4=O)C(=O)N(CCCN1CCN(C)CC1)C2=O` : 0

----------
- Organism: Homo sapiens
- procedure.text: Binding affinity to human telomeric quadruplex 5'-FAM-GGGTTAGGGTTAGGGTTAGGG-TAMRA-3' at 1 uM after 3 hrs by HT-FRET assay
endpoint: ΔTm

Before answering, review these 3 worked examples.
CN1CCN(CCN2C(=O)c3cc(NCCCN4CCOCC4)c4c5c(cc(NCCCN6CCOCC6)c(c35)C2=O)C(=O)N(CCN2CCN(C)CC2)C4=O)CC1	26 °C
CN1CCN(CCCN2C(=O)c3cc(NCC4CCOCC4)c4c5c(cc(NCC6CCOCC6)c(c35)C2=O)C(=O)N(CCCN2CCN(C)CC2)C4=O)CC1	< 2 °C
CN1CCN(CCCN2C(=O)c3cc(NCCCN4CCOCC4)c4c5c(cc(NCCCN6CCOCC6)c(c35)C2=O)C(=O)N(CCCN2CCN(C)CC2)C4=O)CC1	29 °C

Noted for `CN1CCN(CCCN2C(=O)c3cc(NC[C@@H]4CCCO4)c4c5c(cc(NC[C@H]6CCCO6)c(c35)C2=O)C(=O)N(CCCN2CCN(C)CC2)C4=O)CC1` : its ΔTm reads < 2 °C

Notebook: `COCCCNc1cc2c3c(c(NCCCOC)cc4c3c1C(=O)N(CCCN1CCN(C)CC1)C4=O)C(=O)N(CCCN1CCN(C)CC1)C2=O` , ΔTm read as < 2 °C

----------
- Species on record: Homo sapiens
- procedure.text: Binding affinity to human HSP90A 5'-FAM-GGGCCAAAGGGAAGGGGTGGG-TAMRA-3' at 1 uM after 3 hrs by HT-FRET assay
Lab note: anything with ΔTm below 30 °C is marked MET; values at 30 °C or higher are marked NOT MET.

CN1CCN(CCCN2C(=O)c3cc(NCC4CCOCC4)c4c5c(cc(NCC6CCOCC6)c(c35)C2=O)C(=O)N(CCCN2CCN(C)CC2)C4=O)CC1	MET
COCCCNc1cc2c3c(c(NCCCOC)cc4c3c1C(=O)N(CCCN1CCN(C)CC1)C4=O)C(=O)N(CCCN1CCN(C)CC1)C2=O	MET
CN1CCN(CCCN2C(=O)c3cc(NC[C@@H]4CCCO4)c4c5c(cc(NC[C@H]6CCCO6)c(c35)C2=O)C(=O)N(CCCN2CCN(C)CC2)C4=O)CC1	MET
CN1CCN(CCCN2C(=O)c3cc(NCCCN4CCOCC4)c4c5c(cc(NCCCN6CCOCC6)c(c35)C2=O)C(=O)N(CCCN2CCN(C)CC2)C4=O)CC1	NOT MET

Record `CN1CCN(CCN2C(=O)c3cc(NCCCN4CCOCC4)c4c5c(cc(NCCCN6CCOCC6)c(c35)C2=O)C(=O)N(CCN2CCN(C)CC2)C4=O)CC1` : is its ΔTm strictly below 30 °C?
NOT MET

----------
- Organism: Homo sapiens
- procedure.text: Binding affinity to human HSP90A 5'-FAM-GGGCCAAAGGGAAGGGGTGGG-TAMRA-3' at 2 uM after 3 hrs by HT-FRET assay
endpoint: ΔTm (°C)
Your answer should be a plain number; it is taken to be in °C.

In the examples that follow, each entry is paired with its recorded ΔTm.
COCCCNc1cc2c3c(c(NCCCOC)cc4c3c1C(=O)N(CCCN1CCN(C)CC1)C4=O)C(=O)N(CCCN1CCN(C)CC1)C2=O	24
CN1CCN(CCN2C(=O)c3cc(NCCCN4CCOCC4)c4c5c(cc(NCCCN6CCOCC6)c(c35)C2=O)C(=O)N(CCN2CCN(C)CC2)C4=O)CC1	36
CN1CCN(CCCN2C(=O)c3cc(NCC4CCOCC4)c4c5c(cc(NCC6CCOCC6)c(c35)C2=O)C(=O)N(CCCN2CCN(C)CC2)C4=O)CC1	27
CN1CCN(CCCN2C(=O)c3cc(NCCCN4CCOCC4)c4c5c(cc(NCCCN6CCOCC6)c(c35)C2=O)C(=O)N(CCCN2CCN(C)CC2)C4=O)CC1	36

Please examine the following record next.
`CN1CCN(CCCN2C(=O)c3cc(NC[C@@H]4CCCO4)c4c5c(cc(NC[C@H]6CCCO6)c(c35)C2=O)C(=O)N(CCCN2CCN(C)CC2)C4=O)CC1` yielded ΔTm of 23

----------
- Tested on: PANC-1
- procedure.text: Cytotoxicity against human PANC1 cells after 96 hrs by SRB assay
- Type: functional, cell-based
- condition.parameters: PANC-1, 96 h
endpoint: pIC50
Expect pIC50 as a plain number equal to -log10 of the molar concentration.

CN1CCN(CCCN2C(=O)c3cc(NC[C@@H]4CCCO4)c4c5c(cc(NC[C@H]6CCCO6)c(c35)C2=O)C(=O)N(CCCN2CCN(C)CC2)C4=O)CC1	5.82
CN1CCN(CCCNc2cc3c4c(c(NCCCN5CCN(C)CC5)cc5c4c2C(=O)N(CCCN2CCOCC2)C5=O)C(=O)N(CCCN2CCOCC2)C3=O)CC1	8.52
CN1CCN(CCCN2C(=O)c3cc(NCC4CCOCC4)c4c5c(cc(NCC6CCOCC6)c(c35)C2=O)C(=O)N(CCCN2CCN(C)CC2)C4=O)CC1	5.96

// field: pIC50; key: `COCCCNc1cc2c3c(c(NCCCOC)cc4c3c1C(=O)N(CCCN1CCN(C)CC1)C4=O)C(=O)N(CCCN1CCN(C)CC1)C2=O` ; value = 5.60

For `CN1CCN(CCN2C(=O)c3cc(NCCCN4CCOCC4)c4c5c(cc(NCCCN6CCOCC6)c(c35)C2=O)C(=O)N(CCN2CCN(C)CC2)C4=O)CC1` the molecule record lists pIC50 as 8.30

Quick note, pIC50 for `CN1CCN(CCCN2C(=O)c3cc(NCCCN4CCOCC4)c4c5c(cc(NCCCN6CCOCC6)c(c35)C2=O)C(=O)N(CCCN2CCN(C)CC2)C4=O)CC1` landed at 8.70
